Assign MIC Coagulase Negative Staphylococcus (GC 6257) to each entry below.
Tested on: Staphylococcus sp.
method_summary: in vitro antibacterial evaluation, MIC by broth dilution
Type: cell-based
condition_summary: broth dilution, 18 hours at 35° C.; strain GC 6257

Recorded MIC Coagulase Negative Staphylococcus (GC 6257), per entry:
{"columns": ["compound", "experimental_value"],
 "data": [
  ["CCC(C)C(=O)OC1C(CO)OC(OC2C(CO)OC(Oc3ccc(CC4NC(=O)C(C(C)c5ccccc5)NC(=O)CNC(=O)C(CO)NC(=O)C(C(O)C5CNC(=N)N5C5OC(CO)C(O)C(O)C5O)NC(=O)C(C(O)C5CNC(=N)N5)NC4=O)cc3)C(O)C2O)C(O)C1O (stereo not drawn) [Example 278c]", "2 µg/mL"],
  ["CC(c1ccccc1)C1NC(=O)CNC(=O)C(CO)NC(=O)C(C(O)C2CNC(=N)N2C2OC(CO)C(O)C(O)C2O)NC(=O)C(C(O)C2CNC(=N)N2)NC(=O)C(Cc2ccc(OC3OC(CO)C(OC4OC5COC(c6cccc(Oc7ccccc7)c6)OC5C(O)C4O)C(O)C3O)cc2)NC1=O (stereo not drawn) [Example 170]", "1 µg/mL"]
]}

Now let's try a different one.
Short answer for COc1cc(OC)cc(C2OC3C(OC4C(CO)OC(Oc5ccc(CC6NC(=O)C(C(C)c7ccccc7)NC(=O)CNC(=O)C(CO)NC(=O)C(C(O)C7CNC(=N)N7C7OC(CO)C(O)C(O)C7O)NC(=O)C(C(O)C7CNC(=N)N7)NC6=O)cc5)C(O)C4O)OC(CO)C(O)C3O2)c1 (stereo not drawn) [Example 150a] : MIC Coagulase Negative Staphylococcus (GC 6257) was 8 µg/mL

---

System: Staphylococcus sp.
method_summary: in vitro antibacterial evaluation, MIC by broth dilution
Format: cell-based
condition_summary: broth dilution, 18 hours at 35° C.
Assign MIC Staphylococcus aureus (GC 4545) to each entry below.
Give bare numbers, in µg/mL.

{"columns": ["compound", "experimental_value"],
 "data": [
  ["CC(c1ccccc1)C1NC(=O)CNC(=O)C(CO[Si](C)(C)C(C)(C)C)NC(=O)C(C(O)C2CNC(=N)N2C2OC3COC(C)(C)OC3C3OC(C)(C)OC32)NC(=O)C(C(O)C2CNC(=N)N2)NC(=O)C(Cc2ccc(O)cc2)NC1=O (stereo not drawn) [Example 248]", 32]
]}

Consider the following items and state reported MIC Staphylococcus aureus (GC 4545) for each.
1. CC(c1ccccc1)C1NC(=O)CNC(=O)C(CO)NC(=O)C(C(O)C2CNC(=N)N2C2OC(CO)C(O)C(O)C2O)NC(=O)C(C(O)C2CNC(=N)N2)NC(=O)C(Cc2ccc(OC3OC(CO)C(OC4OC(COCC=Cc5ccc(N(C)C)cc5)C(O)C(O)C4O)C(O)C3O)cc2)NC1=O (stereo not drawn) [Example 243]
2. CCCC(CCC)C(=O)OCC1OC(OC2C(CO)OC(Oc3ccc(CC4NC(=O)C(C(C)c5ccccc5)NC(=O)CNC(=O)C(CO)NC(=O)C(C(O)C5CNC(=N)N5C5OC(CO)C(O)C(O)C5O)NC(=O)C(C(O)C5CNC(=N)N5)NC4=O)cc3)C(O)C2O)C(O)C(O)C1O (stereo not drawn) [Example 99c]

**A:**
1: 64; 2: 1

---

Assign MIC Staphylococcus aureus (GC 1131) to each entry below.
Tested on: Staphylococcus sp.
method_summary: in vitro antibacterial evaluation, MIC by broth dilution
Format: cell-based
condition_summary: broth dilution, 18 hours at 35° C.

Recorded MIC Staphylococcus aureus (GC 1131), per entry:
{"columns": ["molecule", "MIC Staphylococcus aureus (GC 1131)"],
 "data": [
  ["CC(c1ccccc1)C1NC(=O)CNC(=O)C(CO)NC(=O)C(C(O)C2CNC(=N)N2C2OC(CO)C(O)C(O)C2O)NC(=O)C(C(O)C2CNC(=N)N2)NC(=O)C(Cc2ccc(OC3OC(CO)C(OC4OC5COC(Cc6ccc(Br)cc6)OC5C(O)C4O)C(O)C3O)cc2)NC1=O (stereo not shown)", "<0.5 to 1 mg/L"],
  ["CC(c1ccccc1)C1NC(=O)CNC(=O)C(CO)NC(=O)C(C(O)C2CNC(=N)N2C2OC(CO)C(O)C(O)C2O)NC(=O)C(C(O)C2CNC(=N)N2)NC(=O)C(Cc2ccc(OC3OC(CO)C(OC4OC(COC(=O)OCc5ccccc5)C(O)C(O)C4O)C(O)C3O)cc2)NC1=O (stereo not shown) [Example 101a]", "4 mg/L"]
]}

Consider the following items and state reported MIC Staphylococcus aureus (GC 1131) for each.
1. CCCCCNC(=O)OCC1OC(OC2C(CO)OC(Oc3ccc(CC4NC(=O)C(C(C)c5ccccc5)NC(=O)CNC(=O)C(CO)NC(=O)C(C(O)C5CNC(=N)N5C5OC(CO)C(O)C(O)C5O)NC(=O)C(C(O)C5CNC(=N)N5)NC4=O)cc3)C(O)C2O)C(O)C(O)C1O (stereo not shown) [Example 251b]
2. CC(c1ccccc1)C1NC(=O)CNC(=O)C(CO)NC(=O)C(C(O)C2CNC(=N)N2C2OC(CO)C(O)C(O)C2O)NC(=O)C(C(O)C2CNC(=N)N2)NC(=O)C(Cc2ccc(OC3OC(CO)C(OC4OC(CO)C(OCC=Cc5ccc(N(C)C)cc5)C(O)C4O)C(O)C3O)cc2)NC1=O (stereo not shown) [Example 243a]
3. CC(c1ccccc1)C1NC(=O)CNC(=O)C(CO)NC(=O)C(C(O)C2CNC(=N)N2C2OC(CO)C(O)C(O)C2O)NC(=O)C(C(O)C2CNC(=N)N2)NC(=O)C(Cc2ccc(OC3OC(CO)C(OC4OC5COC(C67CC8CC(CC(C8)C6)C7)OC5C(O)C4O)C(O)C3O)cc2)NC1=O (stereo not shown)
4. CC(c1ccccc1)C1NC(=O)CNC(=O)C(CO)NC(=O)C(C(O)C2CNC(=N)N2C2OC(CO)C(O)C(O)C2O)NC(=O)C(C(O)C2CNC(=N)N2)NC(=O)C(Cc2ccc(OC3OC(CO)C(OC4OC5COC(Cc6ccccc6)OC5C(O)C4O)C(O)C3O)cc2)NC1=O (stereo not shown)
5. COc1cccc(C2OCC3OC(OC4C(CO)OC(Oc5ccc(CC6NC(=O)C(C(C)c7ccccc7)NC(=O)CNC(=O)C(CO)NC(=O)C(C(O)C7CNC(=N)N7C7OC(CO)C(O)C(O)C7O)NC(=O)C(C(O)C7CNC(=N)N7)NC6=O)cc5)C(O)C4O)C(O)C(O)C3O2)c1 (stereo not shown)

**A:**
1. 8 mg/L
2. 32 mg/L
3. 4 mg/L
4. 2 mg/L
5. 2 mg/L
